Would you kindly list Human CP % Max Inhibition, hemolysis assay, NHS for each of these binders?
assayedTarget: human C5 (human, UniProt P01031 19-1676)
runDescription: cell-based or functional assay
Your answer is read as %, so omit the unit and give the number.

Return reported Human CP % Max Inhibition, hemolysis assay, NHS; argument: H4H11683N (antibody, human IgG4, V domains shown, tested with H4H prefix (human IgG4 Fc with S108P hinge mutation); variable regions follow the numerical identifier; also called H2M11683N) VH: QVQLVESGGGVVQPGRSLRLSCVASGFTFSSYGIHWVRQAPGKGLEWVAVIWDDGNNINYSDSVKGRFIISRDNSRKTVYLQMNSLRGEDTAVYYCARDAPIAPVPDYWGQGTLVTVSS VL: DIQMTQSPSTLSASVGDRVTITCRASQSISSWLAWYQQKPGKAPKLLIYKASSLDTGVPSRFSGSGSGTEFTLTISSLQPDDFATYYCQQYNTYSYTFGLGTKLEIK
98.1

What do you have for H4H12161P (antibody, human IgG4, V domains shown, H4H: human IgG4 Fc with S108P hinge mutation) VH: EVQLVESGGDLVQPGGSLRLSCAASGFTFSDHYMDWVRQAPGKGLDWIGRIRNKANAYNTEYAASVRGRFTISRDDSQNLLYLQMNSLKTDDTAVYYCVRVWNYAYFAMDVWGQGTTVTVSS VL: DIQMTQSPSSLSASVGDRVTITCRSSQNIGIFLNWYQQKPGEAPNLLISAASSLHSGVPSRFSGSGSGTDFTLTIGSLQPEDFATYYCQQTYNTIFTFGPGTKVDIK ?
93.7

What do you have for H4H12175P (antibody, human IgG4, V domains shown, H4H: human IgG4 Fc with S108P hinge mutation) VH: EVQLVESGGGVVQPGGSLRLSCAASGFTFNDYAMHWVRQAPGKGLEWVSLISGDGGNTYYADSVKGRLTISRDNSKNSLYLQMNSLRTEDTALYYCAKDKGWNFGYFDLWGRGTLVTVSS VL: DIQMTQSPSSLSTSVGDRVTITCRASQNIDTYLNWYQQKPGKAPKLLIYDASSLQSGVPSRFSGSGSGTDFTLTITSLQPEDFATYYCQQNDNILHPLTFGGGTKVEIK ?
98

What do you have for H4H12171P (antibody, human IgG4, V domains shown, H4H: human IgG4 Fc with S108P hinge mutation) VH: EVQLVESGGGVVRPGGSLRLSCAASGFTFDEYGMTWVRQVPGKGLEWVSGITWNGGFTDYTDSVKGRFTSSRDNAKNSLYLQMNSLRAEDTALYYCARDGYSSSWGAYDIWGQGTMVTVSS VL: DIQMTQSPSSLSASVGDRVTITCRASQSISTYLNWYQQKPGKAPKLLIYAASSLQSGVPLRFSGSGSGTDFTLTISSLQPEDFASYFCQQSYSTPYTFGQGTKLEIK ?
94.9
